system: α7 integrin promoter; experiment: muscle cell-based assay: α7βgal+/− myoblasts/myotubes, LacZ reporter, β-galactosidase cleavage of FDG; design: species or system mouse; details: Myotubes; compound at 1 uM
Item-by-item account of Results in a α7+/− β-galactosidase assay, Myotubes, 1 uM

1. Cc1ccc2c(c1)/C(=C/c1ccccc1)C(=O)N2 [drawing 457] : −0.09775
2. CCCN(C(=O)c1ccc(S(=O)(=O)N2CCCC2)cc1)C1CCS(=O)(=O)C1 (stereo not shown) [drawing 352] : −0.1728
3. Cc1nnc(-c2ccc(N3CCOCC3)c([N+](=O)[O-])c2)o1 [drawing 338] : 0.1596

INPUT: Give the reported Results in a α7+/− β-galactosidase assay, Myotubes, 1 uM for O=c1c2cc(-c3ccccc3)sc2nc2n1N=C(c1ccccc1)CS2 [drawing 485] (system: α7 integrin promoter).
OUTPUT: −0.1163

INPUT: Give the reported Results in a α7+/− β-galactosidase assay, Myotubes, 1 uM for Oc1nc2ccccc2nc1-c1c[nH]c2ccccc12 [drawing 417] (system: α7 integrin promoter).
OUTPUT: −0.2204

INPUT: Give the reported Results in a α7+/− β-galactosidase assay, Myotubes, 1 uM for Cc1cccc2c(/N=N/c3ccc(S(=O)(=O)Nc4ccc(Cl)cc4)cc3[N+](=O)[O-])c(O)[nH]c12 [drawing 397] (system: α7 integrin promoter).
OUTPUT: −0.05535

INPUT: Give the reported Results in a α7+/− β-galactosidase assay, Myotubes, 1 uM for CC(=O)C1=C(C)Nc2ncnn2C1c1ccc(C)cc1 (stereo not shown) [drawing 447] (system: α7 integrin promoter).
OUTPUT: −0.01856

INPUT: Give the reported Results in a α7+/− β-galactosidase assay, Myotubes, 1 uM for CC(C)Oc1ccc(C(=O)/C=C2\C(=O)Nc3ccccc32)cc1 [drawing 323] (system: α7 integrin promoter).
OUTPUT: 0.1721

INPUT: Give the reported Results in a α7+/− β-galactosidase assay, Myotubes, 1 uM for O=C(N[C@@H](Cc1c[nH]c2ccccc12)C(=O)O)C1CCN(S(=O)(=O)c2cccs2)CC1 [drawing 414] (system: α7 integrin promoter).
OUTPUT: 0.03833

###

Item-by-item account of Fit Zero Activity [%]
Test system: α7 integrin promoter
Test: muscle cell-based assay: α7βgal+/− myoblasts/myotubes, LacZ reporter, β-galactosidase cleavage of FDG
Parameters: species or system mouse
Settings: curve fit, activity at zero concentration
Protocol: An α7 integrin null mouse was produced in which exon 1 of the gene encoding the α7 integrin was replaced by the LacZ reporter. […] A primary myoblast cell line (designated α7βgal^+/−) isolated from 10 day old α7^+/− pups were analyzed for the ability of β-galactosidase to report α7 integrin expression. α7βgal^+/− myoblasts were differentiated and subjected to X-gal staining and western analysis (FIGS. 1A and 1B). […]
The figure you give is taken to be in %; do not add the unit.

1. O=S(=O)(NCC(c1ccco1)N1CCOCC1)c1ccc(Cl)cc1 (stereo not drawn) [Compound 212] : 9.0119
2. CCNC(=O)COC(=O)c1cc(-c2ccco2)nc2ccccc12 [Compound 175] : −62.687
3. O=C(O)CCCNC(=O)CCn1nnc2ccccc2c1=O [Compound 174] : −20.386
4. CN(C#N)c1nccc(-c2cccs2)n1 [Compound 190] : −28.9068
5. CCCN1C2CCCC1CC(NC(=O)c1cccc([N+](=O)[O-])c1)C2 (stereo not drawn) [Compound 164] : 0.8371

INPUT: Given Cc1c(C(=O)N2CCCCC2)c(S(=O)(=O)Nc2cccc(Br)c2)c(C)n1C [Compound 155] , state its recorded Fit Zero Activity [%].
OUTPUT: −32.1225

INPUT: Given CC(C)c1ccc(NC(=O)CN2C(=O)c3ccccc3S2(=O)=O)cc1 [Compound 150] , state its recorded Fit Zero Activity [%].
OUTPUT: −0.2112

INPUT: Given COc1ccc(-c2cc(COc3ccccc3)on2)cc1 [Compound 188] , state its recorded Fit Zero Activity [%].
OUTPUT: 0.195

INPUT: Given CNC(=O)/C(=C\c1cccc(Oc2ccccc2)c1)NC(=O)c1ccccc1 [Compound 211] , state its recorded Fit Zero Activity [%].
OUTPUT: −0.265

###

test system: α7 integrin promoter; experiment: muscle cell-based assay: α7βgal+/− myoblasts/myotubes, LacZ reporter, β-galactosidase cleavage of FDG; design: species or system mouse; details: Table 12; key not given
Item-by-item account of Fit Curve Class
Reply with the value as a number alone.

Example compounds with recorded Fit Curve Class:
1) O=[N+]([O-])c1ccc(Cl)cc1N/N=C/c1ccncc1 : 2.2
2) CC(=O)Nc1ccc(NC(=O)[C@@H](NC(=O)c2cccc(C)c2)C(C)C)cc1 : 2.1
3) NS(=O)(=O)c1ccc(NC(=O)c2cc(-c3ccccc3O)[nH]n2)cc1 : 2.1

INPUT: Give the reported Fit Curve Class for "Cc1cccc(OCc2nc(C#N)c(N3CCCC3)o2)c1" (system: α7 integrin promoter).
OUTPUT: 1.1

INPUT: Give the reported Fit Curve Class for "C/N=c1\scc(-c2ccc(OC)cc2)n1/N=C(\C)c1cccnc1" (system: α7 integrin promoter).
OUTPUT: 2.2

INPUT: Give the reported Fit Curve Class for "CCC(CC)C(=O)Nc1c(C(=O)N2CCN(c3ccccc3)CC2)oc2ccccc12" (system: α7 integrin promoter).
OUTPUT: 2.1

INPUT: Give the reported Fit Curve Class for COc1ccc2oc(C[S+]([O-])c3ccccc3)c(C(=O)O)c2c1 (stereo not drawn) (system: α7 integrin promoter).
OUTPUT: 2.1

INPUT: Give the reported Fit Curve Class for "CN(C)S(=O)(=O)c1ccc(C(=O)Nc2nc3ccccc3[nH]2)cc1" (system: α7 integrin promoter).
OUTPUT: 2.1

INPUT: Give the reported Fit Curve Class for "COc1cc(CNCc2ccc(C(=O)O)cc2)ccc1OCc1ccc(F)cc1.Cl" (system: α7 integrin promoter).
OUTPUT: 2.1

###

test system: α7 integrin promoter; assay: muscle cell-based assay: α7βgal+/− myoblasts/myotubes, LacZ reporter, β-galactosidase cleavage of FDG; design: species or system mouse; conditions: Table 12; curve fit
REPORTED METRIC: Fit HillSlope
Reply with the value as a number alone.

Example compounds with recorded Fit HillSlope:
1. COc1ccc(S(=O)(=O)N(NC2=NS(=O)(=O)c3ccccc32)C(=O)C(C)C)cc1 : 2.4064
2. COCc1c(C(=O)OCc2nc(=O)c3sccc3[nH]2)oc2ccccc12 : 1.3437
3. O=C(COC(=O)Cn1cnc2ccccc21)Nc1cccc([N+](=O)[O-])c1 : 4.9549
4. CN(C)C1(C/N=C/c2cc(Cl)cc([N+](=O)[O-])c2O)CCCCC1 : 1.6604
5. CN(C)c1ccnc2sc(C(N)=O)c(N)c12 : 2.1211

INPUT: Given "O=C(COC(=O)c1cc2ccccc2oc1=O)Nc1ccc(F)cc1F" , state its recorded Fit HillSlope.
OUTPUT: 1.7529

INPUT: Given COc1cc(/C=C/CN2CCN(Cc3ccc(C)o3)C(CCO)C2)ccc1O (stereo not shown) , state its recorded Fit HillSlope.
OUTPUT: 4.9549

INPUT: Given "Cc1ccc(NCc2nnc(SCC(=O)Nc3nnc(C)s3)n2C)cc1" , state its recorded Fit HillSlope.
OUTPUT: 4.9549

INPUT: Given COC(=O)C1=C(C)N=C(C)/C(=C(/O)OC)C1c1ccccc1OCc1c(C)no[n+]1[O-] (stereo not shown) , state its recorded Fit HillSlope.
OUTPUT: 1.4781

INPUT: Given NC(=O)c1nsc(C(=O)N(c2ccccc2)C(C(=O)NCc2ccc(F)cc2)c2ccc(O)cc2)c1N (stereo not shown) , state its recorded Fit HillSlope.
OUTPUT: 1.3443

INPUT: Given "COc1ccc(C(=O)ONC(=N)c2cccc(C)c2)cc1OC" , state its recorded Fit HillSlope.
OUTPUT: 1.7137

INPUT: Given "NC(=O)c1cccnc1Oc1ccc(Cl)cc1Cl" , state its recorded Fit HillSlope.
OUTPUT: 3.9295

###

system: α7 integrin promoter; test: muscle cell-based assay: α7βgal+/− myoblasts/myotubes, LacZ reporter, β-galactosidase cleavage of FDG; parameters: species or system mouse; scale not given here; settings: Myoblasts, 10 uM
Note to self: values exactly at -0.05 are 1. So Results in α7+/− β-galactosidase assay at or above -0.05 is 1, below is -1.

Study these solved cases before continuing.
1. COc1ccc(Cl)cc1NC(=O)c1cc(-c2cc(C)ccc2O)[nH]n1 [drawing 581] : -1
2. O=C1Nc2ccccc2/C1=C/c1ccccc1F [drawing 591] : 1
3. Cn1cc(CN(CCO)Cc2cccs2)c(-c2ccccc2F)n1 [drawing 523] : 1

INPUT: Threshold query (Results in α7+/− β-galactosidase assay >= -0.05) on CN1C(=O)N(CC(=O)N2CCN(S(=O)(=O)c3ccc(Cl)s3)CC2)C(=O)C12CCCCC2 [drawing 701]
OUTPUT: 1
